molecular target: (α4)3(β2)2 nAChR (low sensitivity) (Rattus norvegicus, UniProt P09483+P12390); construct: subunits in pGEMhe, mRNA alpha4:beta2 10:1 injected in Xenopus laevis oocytes; pentamer; assay: two-electrode voltage clamp, Xenopus oocytes
Sequence (P09483 31-630, one chain of several): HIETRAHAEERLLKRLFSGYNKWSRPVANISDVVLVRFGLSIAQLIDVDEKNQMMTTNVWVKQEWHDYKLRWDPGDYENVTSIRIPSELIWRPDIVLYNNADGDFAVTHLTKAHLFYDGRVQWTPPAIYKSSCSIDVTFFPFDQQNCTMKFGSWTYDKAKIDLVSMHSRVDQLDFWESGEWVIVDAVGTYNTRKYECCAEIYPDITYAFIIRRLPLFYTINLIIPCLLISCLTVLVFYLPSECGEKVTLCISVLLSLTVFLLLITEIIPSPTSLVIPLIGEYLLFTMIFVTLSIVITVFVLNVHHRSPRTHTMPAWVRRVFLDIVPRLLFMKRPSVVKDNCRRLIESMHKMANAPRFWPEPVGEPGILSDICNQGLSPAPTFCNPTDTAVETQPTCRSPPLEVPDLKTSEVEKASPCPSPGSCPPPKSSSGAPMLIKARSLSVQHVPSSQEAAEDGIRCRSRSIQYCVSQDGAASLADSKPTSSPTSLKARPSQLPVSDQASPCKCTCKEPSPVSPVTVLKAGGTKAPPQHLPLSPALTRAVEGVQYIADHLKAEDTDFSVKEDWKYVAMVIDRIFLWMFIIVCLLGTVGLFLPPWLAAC
Quantity Kind: pIC50
Please keep in mind that pIC50 is minus log10 of the molar concentration; only the number is needed.

What does the record list as pIC50 for CC(C)[C@@H]1CC[C@@H](C)C[C@H]1O [(−)-menthol] ? 4.48

Follow-up entry: CC(C)[C@H]1CC[C@H](C)C[C@@H]1O [(+)-menthol] 4.34

* * *

molecular target: (α4)3(β2)2 nAChR (low sensitivity) (Rattus norvegicus, UniProt P09483+P12390, P09483:L285M); construct: gene Chrna4; subunits in pGEMhe, mRNA alpha4:beta2 10:1 injected in Xenopus laevis oocytes; pentamer; assay: two-electrode voltage clamp, Xenopus oocytes; format: cell-based; settings: read-out: IC50 (μM (-)-menthol) ± SEM
Sequence (P09483 31-630 L285M): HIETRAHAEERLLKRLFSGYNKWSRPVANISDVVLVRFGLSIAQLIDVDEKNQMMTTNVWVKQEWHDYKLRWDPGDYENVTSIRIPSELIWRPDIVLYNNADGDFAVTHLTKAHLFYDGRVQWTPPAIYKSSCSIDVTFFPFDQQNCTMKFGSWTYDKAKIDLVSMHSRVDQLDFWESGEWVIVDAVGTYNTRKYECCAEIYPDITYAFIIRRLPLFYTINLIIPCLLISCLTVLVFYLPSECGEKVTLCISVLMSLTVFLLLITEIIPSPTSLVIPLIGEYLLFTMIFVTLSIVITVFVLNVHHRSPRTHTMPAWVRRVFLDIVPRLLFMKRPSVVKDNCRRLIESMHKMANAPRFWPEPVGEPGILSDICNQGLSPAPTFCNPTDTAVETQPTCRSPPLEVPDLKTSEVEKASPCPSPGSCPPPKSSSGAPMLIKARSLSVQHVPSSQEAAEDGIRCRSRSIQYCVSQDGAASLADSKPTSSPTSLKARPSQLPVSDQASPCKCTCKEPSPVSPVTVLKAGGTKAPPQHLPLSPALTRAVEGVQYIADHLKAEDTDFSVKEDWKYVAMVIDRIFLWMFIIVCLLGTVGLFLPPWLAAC
Sequence (P12390 25-500): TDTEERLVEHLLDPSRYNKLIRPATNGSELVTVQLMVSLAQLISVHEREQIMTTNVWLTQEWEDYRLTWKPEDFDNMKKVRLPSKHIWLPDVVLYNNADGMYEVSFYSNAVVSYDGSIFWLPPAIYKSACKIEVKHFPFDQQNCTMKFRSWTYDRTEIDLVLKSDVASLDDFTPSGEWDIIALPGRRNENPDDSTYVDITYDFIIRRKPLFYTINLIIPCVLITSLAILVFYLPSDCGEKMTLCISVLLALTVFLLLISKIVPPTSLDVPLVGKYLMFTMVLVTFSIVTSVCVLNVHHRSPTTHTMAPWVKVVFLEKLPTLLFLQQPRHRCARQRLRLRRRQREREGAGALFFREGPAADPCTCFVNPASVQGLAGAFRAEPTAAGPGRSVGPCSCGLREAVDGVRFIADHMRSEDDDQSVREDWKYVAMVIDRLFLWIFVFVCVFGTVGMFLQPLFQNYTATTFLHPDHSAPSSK
Quantity Kind: IC50 (µM)
Express it in µM; write the number only.

What does the record list as IC50 for CC(C)[C@@H]1CC[C@@H](C)C[C@H]1O [(−)-menthol] ? 39.2
